Values compiled from patent US9676782B2.

molecular target: UniProtKB P31422; assay: mGlu3 Ca2+ flux assay; type: cell-based; conditions: amplitude of response at 30 μM test compound as % of maximal response to glutamate; read-out: rat mGlu3 Glu max (%)
Sequence (P31422 23-879): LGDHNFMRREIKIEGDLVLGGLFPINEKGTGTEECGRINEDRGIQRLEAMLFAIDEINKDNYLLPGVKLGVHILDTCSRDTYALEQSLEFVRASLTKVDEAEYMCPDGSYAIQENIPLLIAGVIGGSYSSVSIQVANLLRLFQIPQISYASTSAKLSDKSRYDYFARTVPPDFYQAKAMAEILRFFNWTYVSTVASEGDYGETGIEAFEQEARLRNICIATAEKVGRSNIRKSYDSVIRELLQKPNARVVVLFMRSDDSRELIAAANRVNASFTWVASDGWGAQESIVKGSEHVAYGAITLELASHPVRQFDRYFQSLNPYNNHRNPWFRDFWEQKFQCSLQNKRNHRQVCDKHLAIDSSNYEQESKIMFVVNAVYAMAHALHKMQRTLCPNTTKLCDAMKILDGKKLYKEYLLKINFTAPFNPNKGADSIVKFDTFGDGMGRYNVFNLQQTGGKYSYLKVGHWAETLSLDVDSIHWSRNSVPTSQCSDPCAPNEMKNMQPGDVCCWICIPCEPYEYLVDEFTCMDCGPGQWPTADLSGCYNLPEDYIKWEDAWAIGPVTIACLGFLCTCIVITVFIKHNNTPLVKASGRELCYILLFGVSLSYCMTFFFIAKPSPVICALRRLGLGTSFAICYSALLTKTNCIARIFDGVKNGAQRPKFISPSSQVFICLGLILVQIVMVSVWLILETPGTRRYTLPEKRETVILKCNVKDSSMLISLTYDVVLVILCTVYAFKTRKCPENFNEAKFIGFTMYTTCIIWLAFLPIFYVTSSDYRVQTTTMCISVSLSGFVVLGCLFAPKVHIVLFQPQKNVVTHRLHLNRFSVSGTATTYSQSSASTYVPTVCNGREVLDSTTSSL
endpoint: remaining activity at 30 µM
Respond with a number, then the unit of measure.

{"compound_structure_string": "COc1ccc(N(C)Cc2cc3n(n2)CCN(c2c(F)cccc2F)C3=O)cc1", "remaining activity at 30 µM": "1.75%"}
{"compound_structure_string": "C[C@@H]1CN(c2ccc(F)cc2)C(=O)c2cc(CNc3ccc(Cl)cc3)nn21", "remaining activity at 30 µM": "0.56%"}
{"compound_structure_string": "COc1ccc(N(C)Cc2cc3n(n2)CCN(c2ccc(Cl)cc2)C3=O)cc1", "remaining activity at 30 µM": "1.61%"}

Next up:
Prompt line: // lookup remaining activity at 30 µM for `O=C1c2cc(CNc3ccc(OC(F)F)cc3F)nn2CCN1c1ccc(Cl)cn1`
Response line: 3.97%
